experiment description: Inhibition of MAdCAM-1/alpha-4 beta7-mediated cell adhesion to T-cell lymphoma, HUT78 cells at 500 uM
Format: functional
measurement setup: HuT78
measure name: inhibition at 500 µM (%)
Please reply with the bare figure in % and do not write the unit itself.

Answered cases to consult:
structure as smiles	reading
CC(C)C[C@H](NC(=O)[C@H](CO)NC(=O)[C@@H](NC(=O)[C@H](CC(=O)O)NC(=O)[C@H](CC(C)C)NC(=O)CCCc1ccc2ccc3cccc4ccc1c2c34)[C@@H](C)O)C(N)=O	5
CC(=O)N[C@@H](CC(C)C)C(=O)N[C@H](CC(=O)O)C(=O)N[C@H](C(=O)N[C@@H](CO)C(=O)N[C@@H](CC(C)C)C(N)=O)[C@@H](C)O	0
CC(C)C[C@H](NC(=O)[C@H](CO)NC(=O)[C@@H](NC(=O)[C@H](CC(=O)O)NC(=O)[C@H](CC(C)C)NC(=O)C(c1ccccc1)c1ccccc1)[C@@H](C)O)C(N)=O	13.4

Field: next compound
*Q* Which inhibition at 500 µM value is on record for CC(C)C[C@H](NC(=O)[C@H](CO)NC(=O)[C@@H](NC(=O)[C@H](CC(=O)O)NC(=O)[C@H](CC(C)C)NC(=O)C1c2ccccc2-c2ccccc21)[C@@H](C)O)C(N)=O ?
*A* 18.6

Data credit: ChEMBL document CHEMBL1129205
